# ASSAY INFO: NCI Yeast Anticancer Drug Screen. Data for the rad14 strain (AID 159);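 note: 0% = growth of vehicle-treated control cultures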
# PARTICULARS: S. cerevisiae rad14 strain growth inhibition; at 11.0 µM; stronger effect = higher value
This is part of a sample that, as a whole, favours compounds with a hit. Of some 79,000 tested, about 15% had one in any assay.
PARAMETER MEASURED: growth inhibition (%)
Value expressed in %; do not type the unit.

# annotated cases, reported growth inhibition shown
> print(dat)
                                   compound  measured.value
1  CCNCC(=O)O[C@]1(CC)C(=O)OCc2c1cc1n(c2=O)Cc2cc3ccccc3nc2-1              -1
2  O=C1c2ccc3ccccc3c2CCC1N1CCCCC1 (stereo not given)              50

query: What value of measured growth inhibition is listed for c1cc2c(cc1C1OC[C@H]3[C@@H](c4ccc5c(c4)OCO5)OC[C@@H]13)OCO2 (stereo not given in full) ?
result: 17

query: Continue with COc1cccc2c1C(=O)c1c(O)c3c(c(O)c1C2=O)C[C@@](O)(/C(C)=N\O)C[C@@H]3OC1CC(N)C(O)C(C)O1 (stereo not given in full)
result: 8
